Target: T1, Human ANGPTL4(26-406)-FLAG-His6-Avi (human, UniProt Q9BY76 24-406, biotin on the C-terminal Avi tag in the biotinylated preparations (immobilised form in SET, ELISA and Octet))
T1 construct: also called full-length human ANGPTL4; hANGPTL4
T1 sequence: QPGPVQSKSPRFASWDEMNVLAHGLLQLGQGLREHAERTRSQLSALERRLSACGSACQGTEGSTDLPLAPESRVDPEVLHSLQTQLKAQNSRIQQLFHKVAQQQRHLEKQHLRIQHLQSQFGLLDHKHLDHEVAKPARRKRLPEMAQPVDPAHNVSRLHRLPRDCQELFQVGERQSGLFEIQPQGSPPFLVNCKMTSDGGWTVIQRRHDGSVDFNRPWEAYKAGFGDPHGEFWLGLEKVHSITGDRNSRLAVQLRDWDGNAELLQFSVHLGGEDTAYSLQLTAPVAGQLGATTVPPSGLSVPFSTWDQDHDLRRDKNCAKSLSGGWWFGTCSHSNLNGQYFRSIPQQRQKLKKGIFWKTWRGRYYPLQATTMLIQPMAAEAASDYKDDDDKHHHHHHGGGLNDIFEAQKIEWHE
Test: SET assay
Observed property: Kd

binder="MOR023439 (antibody, human IgG1, kappa, V domains shown, built on the parent antibody for IgG conversion MOR022768 with residues 48-66 of the heavy chain replaced; Parent Fab MOR021823) VH: EVQLLESGGGLVQPGGSLRLSCAASGFTFSSYYLHWVRQAPGKGLEWVSGISSGGSYINYADSVKGRFTISRDNSKNTLYLQMNSLRAEDTAVYYCARERSYAHDHWGQGTLVTVSS VL: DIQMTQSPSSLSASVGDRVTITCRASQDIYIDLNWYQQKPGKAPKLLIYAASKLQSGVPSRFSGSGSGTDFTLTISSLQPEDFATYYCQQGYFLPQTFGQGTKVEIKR" observed_property=Kd reading="< 1 pM"
binder="MOR023443 (antibody, human IgG1, kappa, V domains shown, as MOR023439: built on MOR022768, limits derived) VH: EVQLLESGGGLVQPGGSLRLSCAASGFTFSSYYLHWVRQAPGKGLEWVSSIASSSPATHYADSVKGRFTISRDNSKNTLYLQMNSLRAEDTAVYYCARERSYAHDHWGQGTLVTVSS VL: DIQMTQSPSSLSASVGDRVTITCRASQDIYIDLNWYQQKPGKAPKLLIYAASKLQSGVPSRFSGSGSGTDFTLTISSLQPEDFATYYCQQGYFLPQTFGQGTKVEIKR" observed_property=Kd reading="< 1 pM"
binder="MOR023446 (antibody, human IgG1, kappa, V domains shown, as MOR023439: built on MOR022768, limits derived) VH: EVQLLESGGGLVQPGGSLRLSCAASGFTFSSYYLHWVRQAPGKGLEWVSSISSAGHYIDYADSVKGRFTISRDNSKNTLYLQMNSLRAEDTAVYYCARERSYAHDHWGQGTLVTVSS VL: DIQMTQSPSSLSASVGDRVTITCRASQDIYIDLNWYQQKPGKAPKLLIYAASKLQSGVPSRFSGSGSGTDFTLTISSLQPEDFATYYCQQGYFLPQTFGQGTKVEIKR" observed_property=Kd reading="< 1 pM"

// data source = patent US20160108110A1
